Values from patent US9382254B2

Below, each entry is listed with its recorded pEC50.
Molecular target: CFTR-G1349D (Homo sapiens, UniProt P13569, G1349D)
Construct: expressed in transfected cells
Sequence (P13569 whole entry G1349D): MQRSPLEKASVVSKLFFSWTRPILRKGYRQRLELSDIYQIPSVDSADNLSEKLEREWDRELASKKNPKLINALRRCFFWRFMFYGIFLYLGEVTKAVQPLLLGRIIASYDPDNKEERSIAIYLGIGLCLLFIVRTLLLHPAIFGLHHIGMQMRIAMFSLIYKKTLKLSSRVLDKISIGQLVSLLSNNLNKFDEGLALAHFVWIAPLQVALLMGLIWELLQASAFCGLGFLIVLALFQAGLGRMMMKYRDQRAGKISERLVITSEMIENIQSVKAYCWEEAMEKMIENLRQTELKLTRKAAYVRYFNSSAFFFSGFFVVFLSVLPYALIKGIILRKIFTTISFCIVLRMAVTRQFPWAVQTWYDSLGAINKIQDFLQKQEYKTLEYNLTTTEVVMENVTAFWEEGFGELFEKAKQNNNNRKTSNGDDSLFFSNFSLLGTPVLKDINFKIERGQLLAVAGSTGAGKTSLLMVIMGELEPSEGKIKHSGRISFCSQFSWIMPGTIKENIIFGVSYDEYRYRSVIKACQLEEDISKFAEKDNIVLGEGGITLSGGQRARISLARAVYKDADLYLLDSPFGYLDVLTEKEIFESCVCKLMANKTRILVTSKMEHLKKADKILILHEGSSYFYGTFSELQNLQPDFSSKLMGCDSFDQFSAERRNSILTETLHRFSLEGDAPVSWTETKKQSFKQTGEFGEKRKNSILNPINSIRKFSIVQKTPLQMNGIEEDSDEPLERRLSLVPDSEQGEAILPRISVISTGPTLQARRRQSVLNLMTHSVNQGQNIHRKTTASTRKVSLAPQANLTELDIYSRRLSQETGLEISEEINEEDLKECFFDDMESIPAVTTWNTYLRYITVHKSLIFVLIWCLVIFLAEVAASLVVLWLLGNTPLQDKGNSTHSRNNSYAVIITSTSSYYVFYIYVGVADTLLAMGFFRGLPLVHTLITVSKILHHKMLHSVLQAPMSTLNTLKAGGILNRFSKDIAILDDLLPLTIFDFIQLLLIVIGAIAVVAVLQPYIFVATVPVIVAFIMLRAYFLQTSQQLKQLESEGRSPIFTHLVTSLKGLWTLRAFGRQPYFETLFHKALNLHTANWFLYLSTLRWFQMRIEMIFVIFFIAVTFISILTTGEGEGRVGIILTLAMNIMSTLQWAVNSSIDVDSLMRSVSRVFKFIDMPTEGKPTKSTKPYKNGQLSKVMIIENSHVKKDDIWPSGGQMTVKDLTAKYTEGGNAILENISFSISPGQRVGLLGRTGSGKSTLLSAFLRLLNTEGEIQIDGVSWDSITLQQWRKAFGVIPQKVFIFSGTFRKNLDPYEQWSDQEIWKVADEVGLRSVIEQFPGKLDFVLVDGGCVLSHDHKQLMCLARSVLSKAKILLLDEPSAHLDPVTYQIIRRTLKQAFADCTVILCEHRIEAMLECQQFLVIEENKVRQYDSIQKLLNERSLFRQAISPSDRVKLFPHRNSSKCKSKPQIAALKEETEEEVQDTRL
Test: YFP-halide influx assay for the CFTR-G1349D
Type: cell-based
Scale note: pEC50 = -log10(concentration in M).

>>> value("CC(C)(O)C(=O)Nc1sc(S(=O)(=O)c2cc(F)c(F)cc2OC(F)F)cc1C(N)=O")
5.83
>>> value("CC(O)C(=O)Nc1sc(S(=O)(=O)c2cc(F)ccc2CC(F)(F)F)cc1C(N)=O (stereo not shown)")
7.32
>>> value("CC(C)c1nn(C)cc1S(=O)(=O)c1cc(C(N)=O)c(NC(=O)C(C)(C)O)s1")
5.81

Enquiry: Notebook entry, CFTR-G1349D (Homo sapiens, UniProt P13569, G1349D) assay: pEC50 of CC(C)(O)C(=O)Nc1sc(S(=O)(=O)c2ccc(C(F)(F)F)cc2F)cc1C(N)=O = ?
Return: 6.76

====

The entries below are paired with their reported EC50.
Target: CFTR ΔF508 mutant (Homo sapiens, UniProt P13569, DEL508-508)
Construct: expressed in transfected cells; host or cells: CFBE41o- (adenoviral transduction)
Sequence (P13569 with tags, fused parts or gaps DEL508-508): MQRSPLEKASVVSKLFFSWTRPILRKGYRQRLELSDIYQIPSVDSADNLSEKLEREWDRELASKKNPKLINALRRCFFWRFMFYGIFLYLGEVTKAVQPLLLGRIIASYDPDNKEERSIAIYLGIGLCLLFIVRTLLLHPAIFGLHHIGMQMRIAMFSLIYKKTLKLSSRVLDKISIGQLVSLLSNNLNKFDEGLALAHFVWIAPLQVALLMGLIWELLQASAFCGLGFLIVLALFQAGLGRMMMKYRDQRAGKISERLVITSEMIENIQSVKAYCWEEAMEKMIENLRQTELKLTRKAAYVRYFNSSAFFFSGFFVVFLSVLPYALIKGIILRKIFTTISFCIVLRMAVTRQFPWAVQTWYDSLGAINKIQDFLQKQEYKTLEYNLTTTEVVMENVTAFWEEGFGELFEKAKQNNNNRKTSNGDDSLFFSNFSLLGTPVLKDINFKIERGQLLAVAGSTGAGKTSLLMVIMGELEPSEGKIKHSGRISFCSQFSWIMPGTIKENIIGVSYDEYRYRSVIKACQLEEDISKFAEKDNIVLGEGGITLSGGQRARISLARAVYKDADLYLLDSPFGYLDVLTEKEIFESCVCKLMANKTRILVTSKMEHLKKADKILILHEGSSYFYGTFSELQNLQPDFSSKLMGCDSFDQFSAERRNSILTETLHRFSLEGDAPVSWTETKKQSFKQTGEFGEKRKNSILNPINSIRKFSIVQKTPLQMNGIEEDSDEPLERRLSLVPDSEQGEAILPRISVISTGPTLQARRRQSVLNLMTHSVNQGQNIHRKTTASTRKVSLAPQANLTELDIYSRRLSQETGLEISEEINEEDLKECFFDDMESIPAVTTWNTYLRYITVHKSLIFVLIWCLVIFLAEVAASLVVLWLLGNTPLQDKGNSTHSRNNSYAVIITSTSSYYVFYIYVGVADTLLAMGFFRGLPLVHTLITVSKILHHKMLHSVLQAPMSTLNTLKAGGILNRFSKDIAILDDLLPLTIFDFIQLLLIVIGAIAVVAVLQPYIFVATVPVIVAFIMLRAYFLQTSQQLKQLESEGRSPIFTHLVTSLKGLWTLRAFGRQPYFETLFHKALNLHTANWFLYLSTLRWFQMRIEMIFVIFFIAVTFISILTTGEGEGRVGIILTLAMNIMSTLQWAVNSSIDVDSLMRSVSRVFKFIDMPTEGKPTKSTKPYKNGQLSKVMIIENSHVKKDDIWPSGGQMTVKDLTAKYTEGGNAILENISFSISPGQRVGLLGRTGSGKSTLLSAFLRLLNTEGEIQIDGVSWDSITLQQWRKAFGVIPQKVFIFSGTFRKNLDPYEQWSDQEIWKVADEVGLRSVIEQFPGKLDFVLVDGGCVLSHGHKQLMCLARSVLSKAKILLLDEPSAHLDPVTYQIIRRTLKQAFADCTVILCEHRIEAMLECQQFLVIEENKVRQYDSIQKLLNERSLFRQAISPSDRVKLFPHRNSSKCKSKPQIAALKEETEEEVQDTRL
Experiment: YFP-halide influx assay for the CFTR-ΔF508 mutation, gluconate buffer
Format: cell-based
Conditions: CFBE41o- cells, forskolin 10.67 μM
Field format: number, assumed nM, no unit text.

>>> value("NC(=O)c1cc(S(=O)(=O)N2CCOCC2)sc1NC(=O)c1ccccc1O [Compound 143]")
29.2
>>> value("CCN(CC)S(=O)(=O)c1cc(C(N)=O)c(NC(=O)c2ccc(C)s2)s1 [Compound 4]")
94
>>> value("N#CC1CCN(S(=O)(=O)c2cc(C(N)=O)c(NC(=O)c3ccccc3F)s2)CC1 [Compound 162]")
331
>>> value("CC(C)(C)c1cc(C(=O)Nc2sc(S(=O)(=O)N3CCOCC3)cc2C(N)=O)n[nH]1 [Compound 68]")
129
>>> value("NC(=O)c1cc(S(=O)(=O)N2CCC(F)(F)CC2)sc1NC(=O)C1(O)CCOCC1 [Compound 202]")
706
>>> value("CC(C)(C)n1cc(C(=O)Nc2sc(S(=O)(=O)N3CCCCC3)cc2C(N)=O)cn1 [Compound 43]")
670
>>> value("Cc1c(S(=O)(=O)N2CCOCC2)sc(NC(=O)c2ccccc2C(F)(F)F)c1C(N)=O [Compound 105]")
396

Enquiry: Sample NC(=O)c1cc(S(=O)(=O)N2CCC(F)(F)CC2)sc1NC(=O)c1cc(C(F)(F)F)[nH]n1 [Compound 189] — what was its EC50?
Return: 122

====

Biological target: CFTR ΔF508 mutant (Homo sapiens, UniProt P13569, DEL508-508)
Construct: expressed in transfected cells; host or cells: CFBE41o- (adenoviral transduction)
Assay: YFP-halide influx assay for the CFTR-ΔF508 mutation (384 well, FDSS/μCell)
Type: cell-based
Details: CFBE41o- cells, CFTR-ΔF508, 1×D-PBS, fluorescence after 36 seconds
# pEC50 per entry
On this scale, pEC50 is minus log10 of a concentration expressed in M (mol/L).

Example compounds with recorded pEC50:
>>> value("COc1ccc(OC(F)(F)F)c(S(=O)(=O)c2cc(C(N)=O)c(NC(=O)C(C)CO)s2)c1 (centres unmarked)")
8.60
>>> value("CC1(C)CN(S(=O)(=O)c2cc(C(N)=O)c(NC(=O)c3cc[nH]n3)s2)C1")
8.16

Enquiry: What does the record list as pEC50 for CC(C)(O)C(=O)Nc1sc(S(=O)(=O)c2nc(Cl)ccc2C(F)(F)F)cc1C(N)=O ?
Return: 8.50

Enquiry: # lookup: pEC50 of Cc1cc(F)ccc1S(=O)(=O)c1cc(C(N)=O)c(NC(=O)C2(O)CC2)s1
Return: 7.48

Enquiry: // pEC50 lookup, key: CCN(C)S(=O)(=O)c1cc(C(N)=O)c(NC(=O)c2ccc(C)s2)s1
Return: 6.96

====

Target: CFTR-G1349D (Homo sapiens, UniProt P13569, G1349D)
Construct: expressed in transfected cells
Test: YFP-halide influx assay for the CFTR-G1349D
Format: cell-based
Here, each record is paired with measured pEC50 data.
Here pEC50 is given on a logarithmic scale as minus log10 of the concentration in mol/L.

Completed entries (count: 7):
>>> value("COc1cc(C#N)cc(S(=O)(=O)c2cc(C(N)=O)c(NC(=O)C(C)(C)O)s2)c1OC(F)F [Compound 419]")
6.21
>>> value("COc1ccc(C(F)(F)F)c(S(=O)(=O)c2cc(C(N)=O)c(NC(=O)C(C)(C)O)s2)n1 [Compound 420]")
7.02
>>> value("CC(C)(O)C(=O)Nc1sc(S(=O)(=O)c2ccc(OC(F)F)cc2)cc1C(N)=O [Compound 380]")
6.56
>>> value("CC(C)(O)C(=O)Nc1sc(S(=O)(=O)c2cccc(C(F)(F)F)c2)cc1C(N)=O [Compound 408]")
6.83
>>> value("CC(C)(O)C(=O)Nc1sc(S(=O)(=O)c2ccc(OC(F)(F)F)cc2)cc1C(N)=O [Compound 270]")
6.67
>>> value("CC(C)(O)C(=O)Nc1sc(S(=O)(=O)c2c(F)cc(F)cc2OC(F)F)cc1C(N)=O [Compound 405]")
5.48
>>> value("C[C@H](O)C(=O)Nc1sc(S(=O)(=O)c2ccc(OC(F)(F)F)cc2)cc1C(N)=O [Compound 331]")
6.93

Proceed to the following item.
Enquiry: Give its pEC50 value. Item: CC(C)(O)C(=O)Nc1sc(S(=O)(=O)c2cc(Cl)ccc2OC(F)F)cc1C(N)=O [Compound 401]
Return: 7.31

====

EC50 values, listed per item
Target: CFTR ΔF508 mutant (Homo sapiens, UniProt P13569, DEL508-508)
Construct: expressed in transfected cells; host or cells: CFBE41o- (adenoviral transduction)
Assay: YFP-halide influx assay for the CFTR-ΔF508 mutation (384 well, FDSS/μCell)
Format: cell-based
Conditions: CFBE41o- cells, CFTR-ΔF508, 1×D-PBS, fluorescence after 36 seconds
Supply the numeric figure in nM, leaving out any unit text.

>>> value("CC(C)Oc1ccc(S(=O)(=O)c2cc(C(N)=O)c(NC(=O)C(C)(C)O)s2)cc1")
116

Enquiry: Fill blank: measured EC50 of the compound CC(C)Oc1ccc(S(=O)(=O)c2cc(C(N)=O)c(NC(=O)C(C)(C)O)s2)c(F)c1 is ____.
Return: 42.4

Enquiry: For the compound shown here, C[C@H](O)C(=O)Nc1sc(S(=O)(=O)c2ccc(F)cc2)cc1C(N)=O , give the reported EC50.
Return: 17.3

Enquiry: # EC50 lookup, item COCCOc1ccc(S(=O)(=O)c2cc(C(N)=O)c(NC(=O)C(C)(C)O)s2)cc1
Return: 107

====

Target: CFTR ΔF508 mutant (Homo sapiens, UniProt P13569, DEL508-508)
Construct: expressed in transfected cells; host or cells: CFBE41o- (adenoviral transduction)
Test: YFP-halide influx assay for the CFTR-ΔF508 mutation (384 well, FDSS/μCell)
Format: cell-based
Conditions: CFBE41o- cells, CFTR-ΔF508, 1×D-PBS, fluorescence after 36 seconds
Measured Attribute: EC50 (nM)
Answer format: numeric, nM implied, no suffix.

Here are 3 molecules together with their reported answers.
>>> value("CC(C)(O)C(=O)Nc1sc(S(=O)(=O)c2ccc(OC(F)(F)F)cn2)cc1C(N)=O [Compound 374]")
58.3
>>> value("COCCN(CC(F)(F)F)S(=O)(=O)c1cc(C(N)=O)c(NC(=O)c2ccccc2F)s1 [Compound 157]")
60.9
>>> value("NC(=O)c1cc(S(=O)(=O)c2ccc(F)cc2)sc1NC(=O)c1ccccc1F [Compound 111]")
199

Enquiry: What reported EC50 corresponds to NC(=O)c1cc(S(=O)(=O)c2c(Cl)cccc2Cl)sc1NC(=O)C1(O)CC1 [Compound 247] on CFTR ΔF508 mutant (Homo sapiens, UniProt P13569, DEL508-508)?
Return: 18.5

Enquiry: Form field: EC50 recorded for CC(C)(O)C(=O)Nc1sc(S(=O)(=O)c2ccc(C#N)cc2OC(F)(F)F)cc1C(N)=O [Compound 393] with CFTR ΔF508 mutant (Homo sapiens, UniProt P13569, DEL508-508) (enter value)
Return: 14.8

Enquiry: Write down the reported EC50 of CC(C)(O)C(=O)Nc1sc(S(=O)(=O)c2cnc(C(F)(F)F)nc2)cc1C(N)=O [Compound 394] , test system: CFTR ΔF508 mutant (Homo sapiens, UniProt P13569, DEL508-508).
Return: 354

Enquiry: Entry NC(=O)c1cc(S(=O)(=O)N2CCCCC2)sc1NC(=O)c1ccn[nH]1 [Compound 36] , system CFTR ΔF508 mutant (Homo sapiens, UniProt P13569, DEL508-508): what EC50 was measured?
Return: 13.1

Enquiry: Lab note: need EC50 for COc1ccc(F)cc1S(=O)(=O)c1cc(C(N)=O)c(NC(=O)C(C)(C)O)s1 [Compound 295] on CFTR ΔF508 mutant (Homo sapiens, UniProt P13569, DEL508-508), anyone have it?
Return: 35.6
